Test system: Mus musculus
Assay: Analgesic activity in mouse assessed as inhibition of phenylquinone-induced writhing at 40 mg/kg, sc
Format: functional, organism-based
Design: dose 40 mg/kg
Activity calls are given as the source filed them. No cut-off for these calls is given here.
Your response should consist of one outcome taken from active, inactive

Solved entries:
INSERT INTO results (molecule, study_system, category) VALUES
  ('CC12CC3CC(c4ccc(O)cc41)C(C2)N3CC1CCC1 (stereo unspecified)', 'Mus musculus', 'inactive'),
  ('CC12CC3CC(c4ccc(O)cc41)C(C2)N3CCC1CC1 (stereo unspecified)', 'Mus musculus', 'inactive'),
  ('CCC12CC3CC(c4ccc(O)cc41)C(C2)N3CCC1CC1 (stereo unspecified)', 'Mus musculus', 'active'),
  ('CC12CC3CC(c4ccc(O)cc41)C(C2)N3CC1CC1 (stereo unspecified)', 'Mus musculus', 'active'),
  ('CCC12CC3CC(c4ccc(O)cc41)C(C2)N3CC1CC1 (stereo unspecified)', 'Mus musculus', 'active');

Now consider a different molecule.
Problem: Assay result, entry CCC12CC3CC(c4ccc(O)cc41)C(C2)N3CC1CCC1 (stereo unspecified) — outcome?
Result: inactive
